# Tested on: HLA supertype alleles
# Assay type: binding, human
# measurementParameters: A1 or A24 supertype; three related alleles
Quick list: XRN (number of supertype alleles bound ≦500 nM) per entry.
measurementKind: XRN (number of supertype alleles bound ≦500 nM)

>  <compoundSmiles>
CC(C)C[C@H](NC(=O)[C@H](CC(N)=O)NC(=O)[C@@H]1CCCN1C(=O)[C@@H](NC(=O)[C@H](C)NC(=O)[C@H](Cc1ccccc1)NC(=O)[C@H](CCCCN)NC(=O)[C@@H]1CCCN1C(=O)[C@H](Cc1c[nH]c2ccccc12)NC(=O)[C@@H](N)CO)C(C)C)C(=O)O

>  <endpointResult>
2

$$$$
>  <compoundSmiles>
CSCC[C@H](NC(=O)[C@H](CC(C)C)NC(=O)[C@H](C)NC(=O)[C@@H]1CCCN1C(=O)[C@H](Cc1ccc(O)cc1)NC(=O)CN)C(=O)N1CCC[C@H]1C(=O)N[C@@H](CC(C)C)C(=O)N[C@@H](Cc1ccc(O)cc1)C(=O)O

>  <endpointResult>
2

$$$$
>  <compoundSmiles>
C[C@H](N)C(=O)N[C@@H](CO)C(=O)N[C@@H](Cc1ccccc1)C(=O)N[C@@H](CS)C(=O)NCC(=O)N[C@@H](CO)C(=O)N1CCC[C@H]1C(=O)N[C@@H](Cc1ccc(O)cc1)C(=O)O

>  <endpointResult>
3

$$$$
>  <compoundSmiles>
CC(C)C[C@H](NC(=O)[C@H](CO)NC(=O)[C@@H](N)CC(C)C)C(=O)N[C@@H](CC(=O)O)C(=O)N[C@H](C(=O)N[C@@H](CO)C(=O)N[C@@H](C)C(=O)N[C@@H](C)C(=O)N[C@@H](Cc1ccccc1)C(=O)N[C@@H](Cc1ccc(O)cc1)C(=O)O)C(C)C

>  <endpointResult>
3

$$$$

###

# Test system: HLA supertype alleles
# Assay type: binding, human
# measurementParameters: A1 or A24 supertype; three related alleles
Ends that are not written are not given here.
Listed next: entries and their corresponding XRN (number of supertype alleles bound ≦500 nM).
measurementKind: XRN (number of supertype alleles bound ≦500 nM)

>  <substance>
LTFGRETVLEY [core 137]

>  <targetUnderTest>
HLA supertype alleles

>  <endpointResult>
3

$$$$
>  <substance>
LWFHISCLTF [core 101]

>  <targetUnderTest>
HLA supertype alleles

>  <endpointResult>
3

$$$$
>  <substance>
H-YSLNFMGY-OH [pol 580]

>  <targetUnderTest>
HLA supertype alleles

>  <endpointResult>
3

$$$$
>  <substance>
RFSWLSLLVPF [env 332]

>  <targetUnderTest>
HLA supertype alleles

>  <endpointResult>
2

$$$$

###

pIC50 values by entry
# targetUnderTest: HLA-A*2402 (Homo sapiens, UniProt P04439, D101N/D140Y/D185E/E176V/E190D/F33S/G103R/G107R/I119L/I121M/I306V/K335N/L105A/L180Q/L300P/N151K/N90K/Q86E/Q94H/R106L/R138H/R89G/T104I/T345S/V100E/W191G/Y123F)
# methodNotes: HLA class I peptide binding assay (purified HLA, IC50)
pIC50: −log10 of the molar value. Ends that are not written are not given here.

>  <sequenceChain>
LWFHISCLTF [core 101]

>  <pIC50>
8.17

$$$$
>  <sequenceChain>
RFSWLSLLVPF [env 332]

>  <pIC50>
7.92

$$$$

Measured values drawn from patent US7507803B2 for this set.
